- Tested on: Staphylococcus aureus
- EXPERIMENTAL PROTOCOL: Antibacterial activity against Staphylococcus aureus Newman D2C NCTC 10833 assessed as reduction in microbial growth incubated for 16 hrs by serial dilution method
- Format: functional
ENDPOINT NAME: MIC

>  <COMPOUND>
O=C(Nc1ccc2cn[nH]c2c1)C1CN(c2cccc(Cl)c2)N(c2cccc(Cl)c2)C1=O (stereo not drawn)

>  <RESULT>
> 40 µM

$$$$
>  <COMPOUND>
O=C(NCc1ccccn1)C1CN(c2cccc(Cl)c2)N(c2cccc(Cl)c2)C1=O (stereo not drawn)

>  <RESULT>
> 40 µM

$$$$
>  <COMPOUND>
O=C(Nc1nccs1)C1CN(c2cccc(Cl)c2)N(c2cccc(Cl)c2)C1=O (stereo not drawn)

>  <RESULT>
> 40 µM

$$$$
